// values below are reported diameter of the inhibition zone (DIZ)
Tested on: Geotrichum candidum
Test: Antifungal activity against Geotrichum candidum at 2% by disc diffusion assay
Kindly provide the numeric value in mm only, without the unit symbol.

Cc1cc(C)n(-c2nc(SCC(N)=O)c(C#N)c3c2CCCC3)n1 | 0
CCOC(=O)CSc1c(C#N)c2c(c3nncn13)CCCC2 | 0
N#Cc1c(SCC(N)=O)nc(NN)c2c1CCCC2 | 10

Please report the measured diameter of the inhibition zone (DIZ) for `Clc1ccccc1C(c1ccccc1)(c1ccccc1)n1ccnc1`
26

Please report the measured diameter of the inhibition zone (DIZ) for `N#Cc1c2c(c3nncn3c1SCC(=O)c1ccccc1)CCCC2`
8

Please report the measured diameter of the inhibition zone (DIZ) for `CCOC(=O)CSc1nc(NN)c2c(c1C#N)CCCC2`
0

Please report the measured diameter of the inhibition zone (DIZ) for `CCOC(=O)CSc1nc(-n2nc(C)cc2C)c2c(c1C#N)CCCC2`
10

Please report the measured diameter of the inhibition zone (DIZ) for `N#Cc1c2c(c(-n3[nH]c(=O)cc3N)[nH]c1=S)CCCC2`
8

Please report the measured diameter of the inhibition zone (DIZ) for `NC(=O)c1sc2c(c1N)c1c(c3nncn32)CCCC1`
0

Please report the measured diameter of the inhibition zone (DIZ) for `Cc1cc(C)n(-c2nc(SCC(=O)c3ccccc3)c(C#N)c3c2CCCC3)n1`
0

----------
// values below are reported diameter of the inhibition zone (DIZ)
System: Candida albicans
Experiment: Antifungal activity against Candida albicans at 200 ug/disc by disc diffusion assay
Kindly provide the numeric value in mm only, without the unit symbol.

Some molecules with known diameter of the inhibition zone (DIZ) results, for comparison:
Cc1cc(C)n(-c2nc(SCC(N)=O)c(C#N)c3c2CCCC3)n1 | 0
Cc1cc(C)n(-c2[nH]c(=S)c(C#N)c3c2CCCC3)n1 | 0
Nc1c(C(=O)c2ccccc2)sc2c1c1c(c3nncn32)CCCC1 | 11
CCOC(=O)CSc1nc(-n2nc(C)cc2C)c2c(c1C#N)CCCC2 | 0
N#Cc1c2c(c3nncn3c1SCC(=O)c1ccccc1)CCCC2 | 11
N#Cc1c(SCC(=O)c2ccccc2)nc(NN)c2c1CCCC2 | 0
N#Cc1c2c(c(N3N=C(c4ccccc4)CC3=O)[nH]c1=S)CCCC2 | 0
CCOC(=O)CSc1c(C#N)c2c(c3nncn13)CCCC2 | 0
N#Cc1c2c(c3nncn3c1SCC(N)=O)CCCC2 | 0
Cc1cc(C)n(-c2nc(SCC#N)c(C#N)c3c2CCCC3)n1 | 12

Please report the measured diameter of the inhibition zone (DIZ) for `N#Cc1sc2c(c1N)c1c(c3nncn32)CCCC1`
0

----------
Tested on: Trichophyton rubrum
Experiment: Antifungal activity against Trichophyton rubrum at 50 uL/well by well diffusion assay
Assay type: functional
// values below are reported diameter of the inhibition zone (DIZ)
Kindly provide the numeric value in mm only, without the unit symbol.

Some compounds with known diameter of the inhibition zone (DIZ) results, for comparison:
Clc1ccccc1C(c1ccccc1)(c1ccccc1)n1ccnc1 [CLOTRIMAZOLE] | 40
CCOC(=O)c1sc2c(c1N)c1c(c3nncn32)CCCC1 | 0
CCOC(=O)CSc1c(C#N)c2c(c3nncn13)CCCC2 | 0
N#Cc1c2c(c(N3N=C(c4ccccc4)CC3=O)[nH]c1=S)CCCC2 | 14

Please report the measured diameter of the inhibition zone (DIZ) for `CC(=O)CSc1nc(NN)c2c(c1C#N)CCCC2`
20

Please report the measured diameter of the inhibition zone (DIZ) for `N#Cc1c(SCC(=O)c2ccccc2)nc(NN)c2c1CCCC2`
12

Please report the measured diameter of the inhibition zone (DIZ) for `N#Cc1c2c(c(NN)[nH]c1=S)CCCC2`
17

Please report the measured diameter of the inhibition zone (DIZ) for `CC(=O)c1sc2c(c1N)c1c(c3nncn32)CCCC1`
0

Please report the measured diameter of the inhibition zone (DIZ) for `Cc1cc(C)n(-c2nc(SCC#N)c(C#N)c3c2CCCC3)n1`
0

Please report the measured diameter of the inhibition zone (DIZ) for `Cc1cc(C)n(-c2nc(SCC(N)=O)c(C#N)c3c2CCCC3)n1`
0

Please report the measured diameter of the inhibition zone (DIZ) for `Cc1cc(C)n(-c2[nH]c(=S)c(C#N)c3c2CCCC3)n1`
0

----------
System: Candida albicans
Experiment: Antifungal activity against Candida albicans at 200 ug/disc by disc diffusion assay
// values below are reported diameter of the inhibition zone (DIZ)
Kindly provide the numeric value in mm only, without the unit symbol.

N#Cc1c2c(c3[nH]ncn3c1=S)CCCC2 | 10
CCOC(=O)CSc1nc(NN)c2c(c1C#N)CCCC2 | 0

Let us move to another entry and its diameter of the inhibition zone (DIZ).
Please report the measured diameter of the inhibition zone (DIZ) for `CCOC(=O)c1sc2c(c1N)c1c(c3nncn32)CCCC1`
10

----------
Test system: Candida albicans
Assay: Antifungal activity against Candida albicans at 200 ug/disc by disc diffusion assay
// values below are reported diameter of the inhibition zone (DIZ)
Kindly provide the numeric value in mm only, without the unit symbol.

Cc1cc(C)n(-c2nc(SCC(=O)c3ccccc3)c(C#N)c3c2CCCC3)n1 | 0
CC(=O)CSc1c(C#N)c2c(c3nncn13)CCCC2 | 0
Clc1ccccc1C(c1ccccc1)(c1ccccc1)n1ccnc1 | 27
NC(=O)c1sc2c(c1N)c1c(c3nncn32)CCCC1 | 0
CC(=O)CSc1nc(-n2nc(C)cc2C)c2c(c1C#N)CCCC2 | 10
CC(=O)CSc1nc(NN)c2c(c1C#N)CCCC2 | 11
N#Cc1c(SCC(N)=O)nc(NN)c2c1CCCC2 | 0
N#CCSc1nc(NN)c2c(c1C#N)CCCC2 | 10

Please report the measured diameter of the inhibition zone (DIZ) for `CC(=O)c1sc2c(c1N)c1c(c3nncn32)CCCC1`
0

Please report the measured diameter of the inhibition zone (DIZ) for `N#Cc1c2c(c(NN)[nH]c1=S)CCCC2`
12

Please report the measured diameter of the inhibition zone (DIZ) for `N#CCSc1c(C#N)c2c(c3nncn13)CCCC2`
0

Please report the measured diameter of the inhibition zone (DIZ) for `N#Cc1c2c(c(-n3[nH]c(=O)cc3N)[nH]c1=S)CCCC2`
0

----------
// values below are reported diameter of the inhibition zone (DIZ)
Test system: Geotrichum candidum
Experiment: Antifungal activity against Geotrichum candidum at 2% by disc diffusion assay
Field note: include the unit after the figure.

Some compounds with known diameter of the inhibition zone (DIZ) results, for comparison:
N#Cc1c2c(c(NN)[nH]c1=S)CCCC2 | 0 mm
CC(=O)CSc1nc(NN)c2c(c1C#N)CCCC2 | 12 mm
N#Cc1c2c(c3[nH]ncn3c1=S)CCCC2 | 0 mm
CC(=O)CSc1c(C#N)c2c(c3nncn13)CCCC2 | 0 mm
Nc1c(C(=O)c2ccccc2)sc2c1c1c(c3nncn32)CCCC1 | 8 mm
Cc1cc(C)n(-c2[nH]c(=S)c(C#N)c3c2CCCC3)n1 | 0 mm

Please report the measured diameter of the inhibition zone (DIZ) for `CCOC(=O)c1sc2c(c1N)c1c(c3nncn32)CCCC1`
0 mm

----------
System: Geotrichum candidum
Assay: Antifungal activity against Geotrichum candidum at 2% by disc diffusion assay
EXPERIMENTAL_READOUT: diameter of the inhibition zone (DIZ)

CC(=O)c1sc2c(c1N)c1c(c3nncn32)CCCC1 | 0 mm
CC(=O)CSc1nc(-n2nc(C)cc2C)c2c(c1C#N)CCCC2 | 8 mm
N#Cc1c(SCC(=O)c2ccccc2)nc(NN)c2c1CCCC2 | 12 mm

Please report the measured diameter of the inhibition zone (DIZ) for `N#Cc1c2c(c(N3N=C(c4ccccc4)CC3=O)[nH]c1=S)CCCC2`
0 mm

Please report the measured diameter of the inhibition zone (DIZ) for `N#Cc1sc2c(c1N)c1c(c3nncn32)CCCC1`
0 mm

Please report the measured diameter of the inhibition zone (DIZ) for `N#CCSc1nc(NN)c2c(c1C#N)CCCC2`
0 mm

Please report the measured diameter of the inhibition zone (DIZ) for `N#CCSc1c(C#N)c2c(c3nncn13)CCCC2`
0 mm

Please report the measured diameter of the inhibition zone (DIZ) for `N#Cc1c2c(c3nncn3c1SCC(N)=O)CCCC2`
0 mm

Please report the measured diameter of the inhibition zone (DIZ) for `Cc1cc(C)n(-c2nc(SCC#N)c(C#N)c3c2CCCC3)n1`
10 mm
